Task for the reader: assign each of the following compounds its reported IC50.
# subject_of_test: NRAS Q61R (Homo sapiens, UniProt P01111+P62937, Q61R)
# Sequence (P01111 whole entry Q61R): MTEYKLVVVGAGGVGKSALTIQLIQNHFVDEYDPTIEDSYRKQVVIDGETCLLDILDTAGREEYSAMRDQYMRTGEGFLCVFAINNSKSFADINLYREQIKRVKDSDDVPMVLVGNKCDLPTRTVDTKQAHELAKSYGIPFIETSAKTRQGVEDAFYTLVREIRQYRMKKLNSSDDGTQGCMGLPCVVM
# Sequence (P62937 whole entry): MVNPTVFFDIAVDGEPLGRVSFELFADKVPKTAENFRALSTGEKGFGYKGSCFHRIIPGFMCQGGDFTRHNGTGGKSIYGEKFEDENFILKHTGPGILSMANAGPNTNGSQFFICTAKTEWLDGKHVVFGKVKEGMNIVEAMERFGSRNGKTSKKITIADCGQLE
# measurement_protocol: Ras-Raf disruption / FRET / MOA assay (BRAF RBD)
# Type: biochemical
# cond: NRAS Q61R; read-out: NRAS Q61R FRET data IC50

Prompt line: Which IC50 value is on record for CCn1c(-c2cccnc2[C@H](C)OC)c2c3cc(ccc31)-c1csc(n1)C[C@H](NC(=O)[C@H](C(C)C)N(C)C(=O)N(C)[C@H]1CCCN(C(=O)[C@H]3CN3)C1)C(=O)N1CCC[C@H](N1)C(=O)OCC(C)(C)C2 (atropisomer, axis not shown) [Example 295] ?
Response line: 1000 to 10000 nM

Prompt line: Value lookup for IC50; key = CCn1c(-c2cccnc2[C@H](C)OC)c2c3cc(ccc31)-c1csc(n1)C[C@H](NC(=O)[C@H](C(C)C)N(C)C(=O)N1CC(CN(C)C(=O)[C@@H]3CN3)C1)C(=O)N1CCC[C@H](N1)C(=O)OCC(C)(C)C2 (atropisomer, axis not shown) [Example 225]
Response line: 100 to 1000 nM

Prompt line: Need IC50 of CCn1c(-c2cccnc2[C@H](C)OC)c2c3cc(ccc31)-c1csc(n1)C[C@H](NC(=O)[C@H](C(C)C)N(C)C(=O)N1CCN(C(=O)[C@H]3CN3)C[C@H]1C)C(=O)N1CCC[C@H](N1)C(=O)OCC(C)(C)C2 [Example 301] , thanks.
Response line: 10 to 100 nM

Prompt line: So what's the measured IC50 for this one? CCn1c(-c2cccnc2[C@H](C)OC)c2c3cc(ccc31)-c1cc(O)cc(c1)C[C@H](NC(=O)[C@H](C(C)C)N(C)C(=O)N(C)CCN(C)C(=O)[C@H]1CN1)C(=O)N1CCC[C@H](N1)C(=O)OCC(C)(C)C2 (atropisomer, axis not shown) [Example 204]
Response line: 100 to 1000 nM
